# experimental.details: photoluminescence quantum yield (fraction); solvent given as SMILES
# experimental.setup: in ClCCl
Task for the reader: assign each of the following compounds its reported photoluminescence quantum yield.
Reply with just the number.

Ask: Item O=c1c2ccccc2nc2n1[B-](F)(F)[n+]1ccccc1-2 : provide photoluminescence quantum yield
Result: 0.99

Ask: Item Cc1ccc(N(c2ccc(C)cc2)c2ccc3c4cccc5c(N(c6ccc(C)cc6)c6ccc(C)cc6)ccc(c6cccc2c63)c54)cc1 : provide photoluminescence quantum yield
Result: 0.61

Ask: Item CCCCN(CCCC)c1ccc(/C=C/c2ccc3nc(/C=C/c4nc5ccc(/C=C/c6ccc(N(CCCC)CCCC)cc6)cc5n(CCC)c4=O)c(=O)n(CCC)c3c2)cc1 : provide photoluminescence quantum yield
Result: 0.01

Ask: Item c1ccc(-c2nc(-c3ccc(N4c5ccccc5Oc5ccccc54)cc3)nn2-c2ccc(N3c4ccccc4Oc4ccccc43)cc2)nc1 : provide photoluminescence quantum yield
Result: 0.11

* * *

# experimental.details: photoluminescence quantum yield (fraction); solvent given as SMILES
# experimental.setup: in c1cc(-c2cccc(-n3c4ccccc4c4ccccc43)c2)cc(-n2c3ccccc3c3ccccc32)c1
endpoint.label: photoluminescence quantum yield

Ask: Item N#Cc1c(-n2c3ccccc3c3ccccc32)c(-n2c3ccccc3c3ccccc32)c(-n2c3ccccc3c3ccccc32)c(-n2c3ccccc3c3ccccc32)c1-n1c2ccccc2c2ccccc21 : provide photoluminescence quantum yield
Result: 0.65

Ask: Item CC(C)(C)c1ccc2c(c1)c1cc(C(C)(C)C)ccc1n2-c1cc(C(=O)c2ccccn2)cc(-n2c3ccc(C(C)(C)C)cc3c3cc(C(C)(C)C)ccc32)c1 : provide photoluminescence quantum yield
Result: 0.96

Ask: Item O=c1oc2ccccc2c2cc(N3c4ccccc4Oc4ccccc43)ccc12 : provide photoluminescence quantum yield
Result: 0.52

Ask: Item O=C(c1ccncc1)c1ccc(-n2c3ccccc3c3cc(-n4c5ccccc5c5ccccc54)ccc32)cc1 : provide photoluminescence quantum yield
Result: 0.72

Ask: Item N#Cc1c(-n2c3ccccc3c3ccccc32)c(-n2c3ccc(-c4ccccc4)cc3c3cc(-c4ccccc4)ccc32)c(-n2c3ccccc3c3ccccc32)c(-n2c3ccc(-c4ccccc4)cc3c3cc(-c4ccccc4)ccc32)c1-n1c2ccccc2c2ccccc21 : provide photoluminescence quantum yield
Result: 0.8

Ask: Item Cc1cc(C)c2c(c1)c1cc(C)cc(C)c1n2-c1ccc2c(c1)B(c1c(C(C)C)cc(C(C)C)cc1C(C)C)c1cc(-n3c4c(C)cc(C)cc4c4cc(C)cc(C)c43)ccc1N2c1ccccc1 : provide photoluminescence quantum yield
Result: 0.56

Ask: Item O=C1c2cc(-n3c4ccccc4c4ccccc43)ccc2S(=O)(=O)c2ccc(-n3c4ccccc4c4ccccc43)cc21 : provide photoluminescence quantum yield
Result: 0.348

Ask: Item Cc1cc2cc(N3c4ccccc4Oc4ccccc43)ccc2c(=O)o1 : provide photoluminescence quantum yield
Result: 0.47

Ask: Item c1ccc(-c2nc(-c3ccccc3)nc(-c3ccc(-c4ccc5c(c4)C4(c6ccccc6-c6ccccc64)c4cc(-c6ccc(-c7nc(-c8ccccc8)nc(-c8ccccc8)n7)cc6)ccc4N5c4ccccc4)cc3)n2)cc1 : provide photoluminescence quantum yield
Result: 0.94

* * *

# experimental.details: photoluminescence quantum yield (fraction); solvent given as SMILES
# experimental.setup: in Cc1ccccc1
endpoint.label: photoluminescence quantum yield
Reply with just the number.

Ask: Item CCC1=C(C)C2=Cc3c4ccccc4c4n3[B-](c3ccncc3)(Oc3ccccc3-4)[N+]2=C1C (stereo unspecified) : provide photoluminescence quantum yield
Result: 0.7

Ask: Item C(#Cc1ccc(-n2c3ccccc3c3ccccc32)cc1)c1ccc(-c2nc(-c3ccc(C#Cc4ccc(-n5c6ccccc6c6ccccc65)cc4)cc3)nc(-c3ccc(C#Cc4ccc(-n5c6ccccc6c6ccccc65)cc4)cc3)n2)cc1 : provide photoluminescence quantum yield
Result: 1

Ask: Item CC1=[N+]2C(=C(c3c4ccccc4c(-c4ccccc4)c4ccccc34)c3ccc(C)n3[B-]2(F)F)C=C1 : provide photoluminescence quantum yield
Result: 0.141

Ask: Item CC1=[N+]2C(=C(c3ccccc3)c3ccc(C)n3[B-]2(F)F)C=C1 : provide photoluminescence quantum yield
Result: 0.42

Ask: Item COc1ccc(C2=C3C=CC(C)=[N+]3[B-](F)(F)n3c(C)ccc32)cc1 : provide photoluminescence quantum yield
Result: 0.52

Ask: Item CC(C)(C)c1ccc2c(c1)c1cc(C(C)(C)C)ccc1n2-c1ccc2c(c1)C(=O)c1ccc(-n3c4ccc(C(C)(C)C)cc4c4cc(C(C)(C)C)ccc43)cc1C2=O : provide photoluminescence quantum yield
Result: 0.15

Ask: Item COc1cc(OC)cc(C2=[O+][B-](F)(F)OC(c3cccs3)=C2)c1 : provide photoluminescence quantum yield
Result: 0.14

Ask: Item COc1c2ccccc2c(OC)c2c(C#CC(C)(C)C)c3cc4sccc4cc3c(C#CC(C)(C)C)c12 : provide photoluminescence quantum yield
Result: 0.14

Ask: Item Cc1ccc(C2=C3C=CC(Cl)=[N+]3[B-](F)(F)n3c(Cl)ccc32)cc1 : provide photoluminescence quantum yield
Result: 0.59

Ask: Item CN(C)c1ccc2nc(/C=C/c3ccccc3)c(=O)oc2c1 : provide photoluminescence quantum yield
Result: 0.77

Ask: Item CCOC(=O)/C(C#N)=C/c1cc2c3ccccc3n(C)c2cc1OC : provide photoluminescence quantum yield
Result: 0.003

Ask: Item N#Cc1c(-n2c3ccc(Br)cc3c3cc(Br)ccc32)c(-n2c3ccc(Br)cc3c3cc(Br)ccc32)c(C#N)c(-n2c3ccc(Br)cc3c3cc(Br)ccc32)c1-n1c2ccc(Br)cc2c2cc(Br)ccc21 : provide photoluminescence quantum yield
Result: 0.45

Ask: Item CC(C)(C)c1ccc2c(c1)Sc1cc(C(C)(C)C)ccc1N2c1ccc2c(ccc3nc4ccc5cc(N6c7ccc(C(C)(C)C)cc7Sc7cc(C(C)(C)C)ccc76)ccc5c4nc32)c1 : provide photoluminescence quantum yield
Result: 0.04

Ask: Item c1ccc(-c2ccc3c(c2)c2cc(-c4ccccc4)ccc2n3-c2ccc3c(c2)c2cc(-n4c5ccc(-c6ccccc6)cc5c5cc(-c6ccccc6)ccc54)ccc2n3-c2ccc(-c3nc(-c4ccccc4)nc(-c4ccccc4)n3)cc2)cc1 : provide photoluminescence quantum yield
Result: 0.74

Ask: Item COc1cc(/C=C/c2ccccn2)c(OC)cc1C=O : provide photoluminescence quantum yield
Result: 0.16

Ask: Item COc1ccc(C2=CC(c3cc(OC)cc(OC)c3)=[O+][B-](F)(F)O2)cc1 : provide photoluminescence quantum yield
Result: 0.19
